test system: MS2 coat protein; assay: apparent Kd, MS2 coat protein; higher = weaker binding; RNA-MaP array; FMN 200 µM where present; conditions: ligand present: flavin mononucleotide; designed as: ON switch for flavin mononucleotide
Assign 1 whenever apparent Kd does not fall below 30 nM; assign 0 whenever it does.

>>> class("GUGCACACUCGAGGAUAUCGGAGAGUUCUCCUUCGAGAAGGCGAUUCGUGCCGUGUUAUUCUGGACAUGAGGAUCACCCAUGUG")
1
>>> class("UGGUACAUGGGAGGAUAUCCUCAAGAACAUGAGGAUCACCCAUGUAAUUAUAAGCCGAAAGGCAUGGAGAAGGCCCAUGUACCU")
0
>>> class("GUUAAGAACUAAGGAUAUUGAAUACAUAUGUUUAACAUGAGGAUCACCCAUGUGGGUUGCGGUAUCGAGAAGGUAGAAUAAUAG")
1
>>> class("UUACCUCAUGAGAAGGACAUGAGGAUCACCCAUGUAGGAUAUCGUGGGAGACUGGUAUUGAAUCUUCGGAUUCAAUACCUGUCU")
0
>>> class("GGCUGUCUCGCAGGAUAUGCUGAUCAGAAACUAGCAGAAGGGUGAUCCAGUCGAGGUUUGACAUGAGGAUCACCCAUGUGGAGU")
1
>>> class("UGUUGUAUUACAGGAUAUCUAUUAUUUUUAUUUAGAGAAGGGUAUUCACAUGAGGAUCACCCAUGUAUAUACGAGGAAGAUGUG")
1
>>> class("AGGUACUAGGGAGGAUAUGGGAAGAUACAUGAGGAUCACCCAUGUUUAAGAAUGCCGAGAGGCAACUAGAAGGCCCUAGUACCU")
0
>>> class("GGGAUCAUCGGAGGAUAUCAUGUAGAUACAUGAGGAUCACCCAUGUCGAUGGAGACAUCGGAGAUUGAGAAGGCCGAUGAUCCG")
0
>>> class("CGUUCACAUGAGGAUCACCCAUGUCAGAUUUGGUCAGGAUAUGGUCGGCUUCCGCUAUUGCCAGAAGGGACUGUUG")
0
>>> class("UGAGGACAUGAGGAUCACCCAUGUAGGCCACAAUCAGGAUAUGCAUUAAGGUACCUAAGAGUAGAAGGGAUUCGAG")
1
>>> class("UAUUAGAUCCGAGGAUAUCCUUAUUAGAAACAUGAGGAUCACCCAUGUAAAGGGAAUUAUUUGUAGGAGAAGGCGGAUUUAGUU")
1
>>> class("UCAUUUUACACAGGAUAUACUCAUAUACAGUUGUUUGGCUCUUACAUGUUAGUAGAAGGGUGCAACAUGAGGAUCACCCAUGUA")
1
>>> class("UGUAUUAAUGGAGGAUAUCGAUAUCAAACAUGAGGAUCACCCAUGUUGAGGAUCACCCAUGUCCAUGAGAAGGCCGGCGUACUU")
1
>>> class("CGCUAUUACAUGAGGAUCACCCAUGUAUAUAUUGUAUUUUCGUAGGAUAUGCAGAAGAUUAAAGUGCAGAAGGACGUAAUAGCG")
0

###

Listing of recorded apparent Kd by entry.
test system: MS2 coat protein; experiment: apparent Kd, MS2 coat protein; higher = weaker binding; RNA-MaP array; tryptophan 2.4 mM where present; conditions: ligand present: tryptophan; designed as: OFF switch for tryptophan
READOUT_KIND: apparent Kd

>>> measured_value("UAAUGCAUGACGGCCGCCACUAGAACAUGAGGAUCACCCAUGUACGGCGGCCGUCAUGGGUGGACUAGGACCGGGUCAUGCAUAU")
"10.5 nM"
>>> measured_value("AACAACUAGUCGGCCGCCACUCAUAAUACAUGAGGAUCACCCAUGUAUACUUGGUUUUUAUAUUUGAGGACCGGGACAGUUGCAU")
"10.5 nM"
>>> measured_value("GGAGCUACGUCGGCCGCCACUAGCGGUUAUUACGUGUACAUGAGGAUCACCCAUGUAAUAUGGCUUAGGACCGGGACGUAGCUCC")
"27.1 nM"
>>> measured_value("GGAAUAAUGGCGGCCGCCACUAACUCAUAUACAUCAUGUACAUGAGGAUCACCCAUGUAGGUGUAUAGGACCGGGCCAUAAUUCC")
"38.1 nM"
>>> measured_value("ACACAAUACAUGAGGAUCACCCAUGUAAAACGAGGACCGGUACGGCCGCCACUCGAAUACUGUAAUCCUCGGAAUAUUAAGUGAA")
"35.3 nM"
>>> measured_value("AAUUCCGGGUCGGCCGCCACUGAUAUGGCGAGUCCUCGAACUUACAUGAGGAUCACCCAUGUAAACAGGACCGGGACCGCAUGGG")
"49.1 nM"
>>> measured_value("UAUACAUGGUAUAAAUAUAUAUAUAAGAAACGAGGACCGGUACGGCCGCCACUCGUGCCGGAAACAUGAGGAUCACCCAUGUAUU")
"22.8 nM"

###

tested on: MS2 coat protein; assay: apparent Kd, MS2 coat protein; higher = weaker binding; RNA-MaP array; conditions: ligand present: flavin mononucleotide; designed as: OFF switch for flavin mononucleotide
Assign 1 whenever apparent Kd does not fall below 0.09 µM; assign -1 whenever it does.

>>> class("GAACCUAUAGGAUAUACAUGAGGAUCACCCAUGUAGCCAUCUAUUCGUGGGACUAGGUGUAGAAGGAUAGCAAA")
-1
>>> class("ACACAAACAGAAGGAUAUUUCACCAACAAGUCGAAAGAAGGUCUAGUACAUGAGGAUCACCCAUGUCUCAGUACAUCGCCGGUU")
-1
>>> class("AAAUAAACCGAGGAUAUUAGAUUAGCAUACGAUUAAGAAGGCGGAACAUGAGGAUCACCCAUGUUGGGAGGUCU")
1
>>> class("UUGAUCUCGUAGAAGGGAGAGAUUGAGGGCUUCUCAGGAUAUACGAAUCCUCUGUGGCUAUGUUACAUGAGGAUCACCCAUGUC")
1
>>> class("GUGAGACAUGAGGAUCACCCAUGUAAGGAUAUUGCCUCGACCAUAUAAACAUAUCGGACAAGAAGGUACAGGAG")
-1
>>> class("AGACCAUCCUUAGGAUAUGGCUAUCUUAUCAAGCCAGAAGGAAGGGCCUCAUCUAACAUGAGGAUCACCCAUGUGCGCAAGUUU")
-1
>>> class("GACACCCAAGGAUAUCAAUGAAUCAACAUGAGGAUCACCCAUGUCGUCACCAGAUUAAACUGAGAAGGAGGAGAAA")
-1
>>> class("CCGUAUCGACCAGGAUAUUCAAUAGCGCCACAUGAGGAUCACCCAUGUUUAUAUCUUCAUGGAAGGAAGAAGGGGUACAAGCGG")
1
>>> class("CCUAACUGCGAGAAGGUACAGCGAUAGUGACUGUAAGGAUAUCGGGCGGUGCAUAUCUUAGUAAUACAUGAGGAUCACCCAUGU")
-1
>>> class("UAUUUAUCUAUUGUGACAAACAUGAGGAUCACCCAUGUAUACAGAAGGCAUUACCGAAUCUCGGAUGAGGAUAUGUUAUGGAGU")
-1
>>> class("GGUGCACAUGAGGAUCACCCAUGUGAGGAUAUGUGAAACGAGCUGAAUGCCAACCAAAACAGAAGGCACAAUGG")
-1
>>> class("UACGUAUUAGGAGGAUAUGGCCCUCAUCUUUGACAUGAGGAUCACCCAUGUGGACAUUACGCCACCCAGAAGGCCUUGCUCGGA")
1
>>> class("CGACCGCACGAGAAGGCUAGACAGCGGCGAUCUAGAGGAUAUCGACAUUCAACAUGAGGAUCACCCAUGUGAUUCCAACAAGCU")
-1
>>> class("CGUCGAUAACCACAUGAGGAUCACCCAUGUAAUGUGGUGUGGAGAAGGUCGUGCUAGUUCUAUACGAAGGAUAUCCACGAAUCU")
1

###

system: MS2 coat protein; assay: apparent Kd, MS2 coat protein; higher = weaker binding; RNA-MaP array; FMN 200 µM where present; settings: ligand present: flavin mononucleotide; designed as: ON switch for flavin mononucleotide
READOUT_KIND: apparent Kd (nM)

>>> measured_value("CUAUAGAUAUCAGGAUAUCUAUUUCCAACAUGAGGAUCACCCAUGUUGAGGAUCACCCAUGUAAAGGAGAAGGGAUAUCUAUAG")
16.4
>>> measured_value("AGCUCGGGUGCAGGAUAUCCGCCGGAUCGCAGUGGAGAAGGGCGCCAAGCGAACAUGAGGAUCACCCAUGUAUCGGAGCCGGAC")
11.1
>>> measured_value("UUGGACGUCGUAGGAUAUGUAGGAUAUUCCUACAUGAGGAUCACCCAUGUUGACAUGGAAGAAGGACAGAAGGGCGAUGUCCAU")
5.27
>>> measured_value("GAUUAACAUGAGGAUCACCCAUGUCGUUAAAUGGGAGGAUAUACGUGGACCGUAGUCCGCGUAGAAGGCCUAAUUG")
29.2
>>> measured_value("AGGAGUAAAGGGAAUAACAUGAGGAUCACCCAUGUAUGGGAGAGAAGGCAUAUCGGAGGACGAUAUGAGGAUAUUUAAACUUUA")
20.5
>>> measured_value("UAGCGCUGUCGAGAGGAUAUGCGGUGAUGGACAUGAGGAUCACCCAUGUUAGCGAUAGCAUUACGGUAGAAGGCUCUACAGCUGC")
13.6
>>> measured_value("UUGCGCUGUCGAGAGGAUAUGCGGUGUUGGACAUGAGGAUCACCCAUGUUAGCGAUUGCUUUACGGUAGAAGGCUCUUCAGCUGC")
52.9
>>> measured_value("GUAGCAUACCGAGGAUAUUCAGGGCUUAAAUAAACAUGAGGAUCACCCAUGUGGCGAAAGCCUAGGGAGAAGGCGGAAUGCUAC")
13.4
>>> measured_value("UACAUAAAUGAAGGAUAUCGAUAUCCAACAUGAGGAUCACCCAUGUUGAGGAUCACCCAUGUAAAUGAGAAGGUUAACAUAACU")
73.5
>>> measured_value("GUGGUCAGACAUGAGGAUCACCCAUGUGGAAUAAAUAACAGACAGGAUAUGUAAUAUAGGAUAUAACAGAAGGGUCGAUUGGUG")
77.9
>>> measured_value("CACAUGGUUACAGGAUAUGUUAGGUUGCAGUUGAUUGGUUAUUAAAAUAUUACAGAAGGGUAAGACAUGAGGAUCACCCAUGUG")
97.5
>>> measured_value("AAAACAGCGCGUCCCGCGCCAACUACAGAAGGCCAACAUGAGGAUCACCCAUGUACAAACUAGAUGGAGGAUAUGUAGGUUCUA")
4.5
>>> measured_value("GAGAAGAGUAUAGGAUAUUAAGAAACAUGAGGAUCACCCAUGUAGUGAGUGUGAGAAGGGUAGGAGGUGGUAGGAGGAUCCAGG")
16.4
>>> measured_value("GUAGCUAUCGGAGGAUAUUCAUGAUACAUGAGGAUCACCCAUGUUAAAUUGGGAGAAGGCCGAUAGCUACAAGAGCGAAAGCUC")
5.54

src = the EternaBench riboswitch data
